Assay: Cmax was evaluated in male Dawley rats at a dose of 42.9 mg/kg when taken perorally
Format: ADME, organism-based
Design: dose 42.9 mg/kg, route oral
Conditions: Sprague-Dawley, rat, in vivo, po
experimental_endpoint: Cmax (µM)

CC(=O)NC[C@H]1CN(c2ccc(-n3ccc(C#N)c3)c(F)c2)C(=O)O1 :: 31

====

Assay: terminal disposition half-life was evaluated in male Dawley rats at 9.9 mg/kg when taken intravenously
Type: ADME, organism-based
Parameters: dose 9.9 mg/kg, route intravenous
Conditions: Sprague-Dawley, rat, in vivo, iv
experimental_endpoint: half-life

CC(=O)NC[C@H]1CN(c2ccc(-n3ccc(C#N)c3)c(F)c2)C(=O)O1 :: 5.15 h
